TEST TARGET: HLA-B*45:01
ASSAY SUMMARY: IEDB peptide-MHC binding, purified MHC/competitive/radioactivity; filed as Kd, often an IC50 or EC50 that approximates it; bounds were set here for any values at or beyond the usual limits of such assays
MEASUREMENT CONTEXT: source organism: Mammarenavirus juninense
REPORTED METRIC: Kd

INSERT INTO assay_data (primary_sequence, reported_metric, val) VALUES
  ('PDSCLNGKL', 'Kd', '≥ 25.6 µM');

---

TEST TARGET: HLA-B*40:01
ASSAY SUMMARY: IEDB peptide-MHC binding, purified MHC/direct/fluorescence; filed as Kd, often an IC50 or EC50 that approximates it; bounds were set here for any values at or beyond the usual limits of such assays
MEASUREMENT CONTEXT: source organism: Rickettsia prowazekii
REPORTED METRIC: Kd

INSERT INTO measurements (primary_sequence, test_target, val) VALUES
  ('NLKLYGAEF', 'HLA-B*40:01', '≥ 20 µM');
